Compiled pIC50 measurements on Macrophage colony-stimulating factor 1 receptor (Homo sapiens, UniProt P07333) taken from the literature.
pIC50: −log10 of the molar value.

Here's what some known entries look like.
compound=Cc1ccc(NC(=O)Nc2cccc(C(=O)c3c[nH]c4ncccc34)c2)cc1 test_result="≥ 5.00"
compound="Cc1cc(-c2cnc(N)c(NCc3c(Cl)cccc3Cl)n2)ccc1CNC1CCN[C@@H](C(=O)OC2CCCC2)C1 (stereo partly drawn)" test_result="> 7.00"
compound=Cc1n[nH]c2ncc(-c3cc(F)c(CC(=O)Nc4cncc(C(F)(F)F)c4)cc3F)cc12 test_result="5.00 to 10.00"
compound=COc1cncc(CNc2ccc(Cc3c[nH]c4ncncc34)c(F)n2)c1 test_result="≥ 5.00"
compound=Fc1nc(NCc2ccnc(N3CCCC3)c2)ccc1Cc1c[nH]c2ncncc12 test_result="≥ 5.00"

Prompt: Item CCn1cc(Nc2ncc(Cc3c[nH]c4ncc(C)cc34)cn2)cn1 with Macrophage colony-stimulating factor 1 receptor (Homo sapiens, UniProt P07333) - pIC50?
Completion: > 8.00

Prompt: Item O=C(c1c(F)ccc(NS(=O)(=O)c2ccccc2)c1F)c1c[nH]c2nccc(Cl)c12 with Macrophage colony-stimulating factor 1 receptor (Homo sapiens, UniProt P07333) - pIC50?
Completion: ≥ 5.00

Prompt: Item CC(C)CS(=O)(=O)Nc1ccc(F)c(C(=O)c2c[nH]c3ncc(Br)cc23)c1F with Macrophage colony-stimulating factor 1 receptor (Homo sapiens, UniProt P07333) - pIC50?
Completion: ≥ 5.00

Prompt: Item NC(=O)c1cnc2cc(F)c(N3CCOCC3)cc2c1Nc1ccc(F)cc1F with Macrophage colony-stimulating factor 1 receptor (Homo sapiens, UniProt P07333) - pIC50?
Completion: 6.81

Prompt: Item O=C(c1c(F)cccc1F)c1c[nH]c2ncccc12 with Macrophage colony-stimulating factor 1 receptor (Homo sapiens, UniProt P07333) - pIC50?
Completion: ≥ 5.00

Prompt: Item N#Cc1cc2cnc(Nc3ccc(C4CCNCC4)cc3)nc2n(C2CCCC2)c1=O with Macrophage colony-stimulating factor 1 receptor (Homo sapiens, UniProt P07333) - pIC50?
Completion: 8.24

Prompt: Item CCCS(=O)(=O)Nc1ccc(F)c(C(=O)c2c[nH]c3ncc(-c4ccc(N5CCN(C)CC5)nc4)cc23)c1F with Macrophage colony-stimulating factor 1 receptor (Homo sapiens, UniProt P07333) - pIC50?
Completion: ≥ 5.00

Prompt: Item COc1ccc(OC)c(CNc2ccc(Cc3c[nH]c4ncncc34)c(F)n2)c1 with Macrophage colony-stimulating factor 1 receptor (Homo sapiens, UniProt P07333) - pIC50?
Completion: ≥ 5.00

Prompt: Item C[C@H](Nc1ccc(Cc2c[nH]c3ncncc23)c(F)n1)c1ccc(F)cc1 with Macrophage colony-stimulating factor 1 receptor (Homo sapiens, UniProt P07333) - pIC50?
Completion: ≥ 5.00

Prompt: Item CCOc1ncccc1CNc1ccc(Cc2c[nH]c3ncncc23)c(F)n1 with Macrophage colony-stimulating factor 1 receptor (Homo sapiens, UniProt P07333) - pIC50?
Completion: ≥ 5.00

Prompt: Item Cc1nc(-c2cnc3n(c2=O)CCCN3C)ccc1Oc1ccnc(-c2cnn(C)c2)c1 with Macrophage colony-stimulating factor 1 receptor (Homo sapiens, UniProt P07333) - pIC50?
Completion: 7.13

Prompt: Item COc1cnc2[nH]cc(Cc3c(F)ccc(OCC(F)(F)F)c3Cl)c2c1 with Macrophage colony-stimulating factor 1 receptor (Homo sapiens, UniProt P07333) - pIC50?
Completion: ≥ 5.00

Prompt: Item Cc1cnc2[nH]cc(Cc3cnc(Nc4cc(C5CC5)n[nH]4)nc3)c2c1 with Macrophage colony-stimulating factor 1 receptor (Homo sapiens, UniProt P07333) - pIC50?
Completion: < 6.00

Prompt: Item O=C(Nc1ccccc1)Nc1cccc(C(=O)c2c[nH]c3ncc(Cl)cc23)c1 with Macrophage colony-stimulating factor 1 receptor (Homo sapiens, UniProt P07333) - pIC50?
Completion: ≥ 5.00

Prompt: Item Cc1nc(-n2ccc3c(ncn3C(C)C)c2=O)ccc1Cc1c[nH]c2ncc(Cl)cc12 with Macrophage colony-stimulating factor 1 receptor (Homo sapiens, UniProt P07333) - pIC50?
Completion: 7.32

Prompt: Item CC(C)C[C@H](NCCn1cc(-c2cnc(N)c(NCc3c(Cl)cccc3Cl)n2)cn1)C(=O)OC1CCCC1 with Macrophage colony-stimulating factor 1 receptor (Homo sapiens, UniProt P07333) - pIC50?
Completion: 5.30 to 6.00

Prompt: Item Cc1cc(-c2cnc(N)c(NCc3c(Cl)cccc3Cl)n2)ccc1CNC1CCN[C@@H](C(=O)OC(C)(C)C)C1 (stereo partly drawn) with Macrophage colony-stimulating factor 1 receptor (Homo sapiens, UniProt P07333) - pIC50?
Completion: > 7.00

Prompt: Item CCc1cnc2[nH]cc(C(=O)c3c(F)ccc(NS(=O)(=O)c4ccc(C(F)(F)F)cc4)c3F)c2c1 with Macrophage colony-stimulating factor 1 receptor (Homo sapiens, UniProt P07333) - pIC50?
Completion: ≥ 5.00

Prompt: Item Cc1cnccc1CNc1ncc(Cc2c[nH]c3ncncc23)cn1 with Macrophage colony-stimulating factor 1 receptor (Homo sapiens, UniProt P07333) - pIC50?
Completion: ≥ 5.00

Prompt: Item CC(C)N1CCOc2c(F)cc(-c3nc(Nc4ccc(C5CCN(C)CC5)cn4)ncc3F)cc21 with Macrophage colony-stimulating factor 1 receptor (Homo sapiens, UniProt P07333) - pIC50?
Completion: 6.45

Prompt: Item O=C(c1ccc2c(c1)OC(F)(F)O2)c1c[nH]c2ncc(-c3cccnc3)cc12 with Macrophage colony-stimulating factor 1 receptor (Homo sapiens, UniProt P07333) - pIC50?
Completion: ≥ 5.00

Prompt: Item Cc1nc(NC(=O)N2CCC(C)C2=O)ccc1Oc1ccnc(-c2cnn(C)c2)c1 (stereo not drawn) with Macrophage colony-stimulating factor 1 receptor (Homo sapiens, UniProt P07333) - pIC50?
Completion: 6.49

Prompt: Item COc1ccc(F)c(C(=O)c2c[nH]c3ncc(-c4ccccc4)cc23)c1 with Macrophage colony-stimulating factor 1 receptor (Homo sapiens, UniProt P07333) - pIC50?
Completion: ≥ 5.00

Prompt: Item O=C(c1c(F)ccc(OC(F)F)c1F)c1c[nH]c2ncc(Br)cc12 with Macrophage colony-stimulating factor 1 receptor (Homo sapiens, UniProt P07333) - pIC50?
Completion: ≥ 5.00

Prompt: Item O=C(c1cccc(O)c1)c1c[nH]c2nccc(Cl)c12 with Macrophage colony-stimulating factor 1 receptor (Homo sapiens, UniProt P07333) - pIC50?
Completion: ≥ 5.00
